Just for reference, patent US9988407B2 is where these values come from.

Assay: Metabolic stability in mouse plasma
Type: in vitro ADME
Settings: 10 μM, 37° C., 30 min
The entries below come with measured Percentage remaining values attached.
readout: Percentage remaining (%)

{"compound": "CC(C)OC(=O)OCOP(=O)(CC(CCC(=O)O)C(=O)OCC(=O)N(C)C)OCOC(=O)OC(C)C (centres unmarked) [Compound 25]", "readout": "Percentage remaining", "data value": 0}
{"compound": "CC(C)OC(=O)OC(C)OP(=O)(CC(CCC(=O)O)C(=O)OCC(=O)N(C)C)OC(C)OC(=O)OC(C)C (centres unmarked) [Compound 26]", "readout": "Percentage remaining", "data value": 3}
{"compound": "COC(=O)CCC(CP(=O)(OCOC(=O)OC(C)C)OCOC(=O)OC(C)C)C(=O)OC (centres unmarked) [Compound 6]", "readout": "Percentage remaining", "data value": 2}
{"compound": "CCOC(=O)[C@H](Cc1ccccc1)NP(=O)(CC(CCC(=O)OC)C(=O)OC)N[C@@H](Cc1ccccc1)C(=O)OCC (some centres unmarked) [Compound 17]", "readout": "Percentage remaining", "data value": 2}
{"compound": "CCOC(=O)CCC(CP(=O)(O)O)C(=O)OCC (centres unmarked) [Compound 2]", "readout": "Percentage remaining", "data value": 99}
{"compound": "COC(=O)CCC(CP(=O)(OCOC(=O)C(C)(C)C)OCOC(=O)C(C)(C)C)C(=O)OC (centres unmarked) [Compound 14]", "readout": "Percentage remaining", "data value": 0}
{"compound": "CCCCOC(=O)c1ccccc1OP(=O)(CC(CCC(=O)OC)C(=O)OC)Oc1ccccc1C(=O)OCCCC (centres unmarked) [Compound 16]", "readout": "Percentage remaining", "data value": 3}
{"compound": "CC(C)OC(=O)OC(C)OC(=O)C(CCC(=O)O)CP(=O)(OC(C)OC(=O)OC(C)C)OC(C)OC(=O)OC(C)C (centres unmarked) [Compound 24]", "readout": "Percentage remaining", "data value": 0}

====

Assay: Metabolic stability in mouse plasma
Assay type: in vitro ADME
Conditions: 10 μM, 37° C., 30 min

{"molecule": "CCOCCOCCOCCOCCOCCOCCOP(=O)(CC(CCC(=O)OC)C(=O)OC)OCCOCCOCCOCCOCCOCCOCC (stereo not shown)", "Percentage remaining [%]": 2}
{"molecule": "CC(C)OC(=O)OCOC(=O)C(CCC(=O)O)CP(=O)(OCOC(=O)OC(C)C)OCOC(=O)OC(C)C (stereo not shown)", "Percentage remaining [%]": 1}
{"molecule": "COC(=O)CCC(CP(=O)(O)O)C(=O)OC (stereo not shown)", "Percentage remaining [%]": 102}
{"molecule": "CCOC(=O)CCC(CP(=O)(OCOC(=O)C(C)(C)C)OCOC(=O)C(C)(C)C)C(=O)OCC (stereo not shown)", "Percentage remaining [%]": 0}

====

Experiment: Chemical stability in HBSS buffer (pH 7.4) / simulated gastric fluid
Assay type: physicochemical
Conditions: HBSS, 10 μM, 37° C., 60 min
The entries below come with measured Percentage remaining values attached.

{"molecule": "CCOC(=O)[C@H](Cc1ccccc1)NP(=O)(CC(CCC(=O)OC)C(=O)OC)N[C@@H](Cc1ccccc1)C(=O)OCC (stereo partly drawn) [Compound 17]", "Percentage remaining / %": 93}
{"molecule": "CCOCCOCCOCCOCCOCCOCCOP(=O)(CC(CCC(=O)OC)C(=O)OC)OCCOCCOCCOCCOCCOCCOCC (stereo not drawn) [Compound 13]", "Percentage remaining / %": 101}
{"molecule": "COC(=O)CCC(CP(=O)(OCOC(=O)C(C)(C)C)OCOC(=O)C(C)(C)C)C(=O)OC (stereo not drawn) [Compound 14]", "Percentage remaining / %": 21}
{"molecule": "COC(=O)CCC(CP(=O)(O)O)C(=O)OC (stereo not drawn) [Compound 1]", "Percentage remaining / %": 94}
{"molecule": "CCCCOC(=O)c1ccccc1OP(=O)(CC(CCC(=O)OC)C(=O)OC)Oc1ccccc1C(=O)OCCCC (stereo not drawn) [Compound 16]", "Percentage remaining / %": 95}
{"molecule": "COC(=O)CCC(CP(=O)(OCOC(=O)OC(C)C)OCOC(=O)OC(C)C)C(=O)OC (stereo not drawn) [Compound 6]", "Percentage remaining / %": 93}

====

Assay: Metabolic stability in mouse liver S9
Format: in vitro ADME
Conditions: Mouse S9, 10 μM, 37° C., 60 min
readout: Percentage remaining (%)

{"compound": "COC(=O)CCC(CP(=O)(O)O)C(=O)OC (centres unmarked)", "data value": 86}
{"compound": "CCOC(=O)[C@H](Cc1ccccc1)NP(=O)(CC(CCC(=O)OC)C(=O)OC)N[C@@H](Cc1ccccc1)C(=O)OCC (some centres unmarked)", "data value": 0.1}
{"compound": "CCCCOC(=O)c1ccccc1OP(=O)(CC(CCC(=O)OC)C(=O)OC)Oc1ccccc1C(=O)OCCCC (centres unmarked)", "data value": 2}
{"compound": "CCOC(=O)CCC(CP(=O)(O)O)C(=O)OCC (centres unmarked)", "data value": 103}
{"compound": "CCOC(=O)CCC(CP(=O)(OCOC(=O)C(C)(C)C)OCOC(=O)C(C)(C)C)C(=O)OCC (centres unmarked)", "data value": 0}
{"compound": "COC(=O)CCC(CP(=O)(OCOC(=O)C(C)(C)C)OCOC(=O)C(C)(C)C)C(=O)OC (centres unmarked)", "data value": 0}
{"compound": "CCOCCOCCOCCOCCOCCOCCOP(=O)(CC(CCC(=O)OC)C(=O)OC)OCCOCCOCCOCCOCCOCCOCC (centres unmarked)", "data value": 100}
{"compound": "COC(=O)CCC(CP(=O)(OCOC(=O)OC(C)C)OCOC(=O)OC(C)C)C(=O)OC (centres unmarked)", "data value": 0.1}

====

Assay: Metabolic stability in mouse liver S9
Format: in vitro ADME
Settings: Mouse S9, 10 μM, 37° C., 30 min
The entries below come with measured Percentage remaining values attached.
readout: Percentage remaining (%)

{"molecule": "CCOC(=O)CCC(CP(=O)(O)O)C(=O)OCC (stereo not shown) [Compound 2]", "unit abbrev": "%", "data value": 103}
{"molecule": "CCOC(=O)[C@H](Cc1ccccc1)NP(=O)(CC(CCC(=O)OC)C(=O)OC)N[C@@H](Cc1ccccc1)C(=O)OCC (stereo partly shown) [Compound 17]", "unit abbrev": "%", "data value": 0}
{"molecule": "CCOCCOCCOCCOCCOCCOCCOP(=O)(CC(CCC(=O)OC)C(=O)OC)OCCOCCOCCOCCOCCOCCOCC (stereo not shown) [Compound 13]", "unit abbrev": "%", "data value": 106}
{"molecule": "COC(=O)CCC(CP(=O)(OCOC(=O)C(C)(C)C)OCOC(=O)C(C)(C)C)C(=O)OC (stereo not shown) [Compound 14]", "unit abbrev": "%", "data value": 1}

====

Assay: Metabolic stability in mouse liver microsomes
Type: in vitro ADME
Conditions: 10 μM, 37° C., 30 min
Percentage remaining strictly under 3% means TRUE; at 3% or over means FALSE.

{"compound": "CCOCCOCCOCCOCCOCCOCCOP(=O)(CC(CCC(=O)OC)C(=O)OC)OCCOCCOCCOCCOCCOCCOCC (stereo not drawn)", "classification": "FALSE"}
{"compound": "CC(C)OC(=O)OCOP(=O)(CC(CCC(=O)O)C(=O)OCC(=O)N(C)C)OCOC(=O)OC(C)C (stereo not drawn)", "classification": "FALSE"}
{"compound": "COC(=O)CCC(CP(=O)(O)O)C(=O)OC (stereo not drawn)", "classification": "FALSE"}
{"compound": "CC(C)OC(=O)OC(C)OC(=O)C(CCC(=O)O)CP(=O)(OC(C)OC(=O)OC(C)C)OC(C)OC(=O)OC(C)C (stereo not drawn)", "classification": "TRUE"}
{"compound": "CCOC(=O)CCC(CP(=O)(OCOC(=O)C(C)(C)C)OCOC(=O)C(C)(C)C)C(=O)OCC (stereo not drawn)", "classification": "TRUE"}
{"compound": "CCOC(=O)[C@H](Cc1ccccc1)NP(=O)(CC(CCC(=O)OC)C(=O)OC)N[C@@H](Cc1ccccc1)C(=O)OCC (stereo partly drawn)", "classification": "TRUE"}
{"compound": "CC(C)OC(=O)OC(C)OP(=O)(CC(CCC(=O)O)C(=O)OCC(=O)N(C)C)OC(C)OC(=O)OC(C)C (stereo not drawn)", "classification": "FALSE"}
{"compound": "CC(C)OC(=O)OCOC(=O)C(CCC(=O)O)CP(=O)(OCOC(=O)OC(C)C)OCOC(=O)OC(C)C (stereo not drawn)", "classification": "TRUE"}
{"compound": "CCOC(=O)CCC(CP(=O)(O)O)C(=O)OCC (stereo not drawn)", "classification": "FALSE"}
{"compound": "COC(=O)CCC(CP(=O)(OCOC(=O)OC(C)C)OCOC(=O)OC(C)C)C(=O)OC (stereo not drawn)", "classification": "TRUE"}
{"compound": "COC(=O)CCC(CP(=O)(OCOC(=O)C(C)(C)C)OCOC(=O)C(C)(C)C)C(=O)OC (stereo not drawn)", "classification": "TRUE"}
